# run.conditions: 308.15 K; 101.33 kPa; Liquid; Linear variable-path acoustic interferometer
measurement.label: speed of sound (m/s)
One number for each entry, in m/s.

# compound, speed of sound, m/s
measured = [
    ("CC(=O)c1ccc(Cl)cc1 [4'-chloroacetophenone]", 1390),
    ("CNC(C)=O [N-methylacetamide]", 1360),
    ("CC(=O)c1ccc(C)cc1 [4'-methylacetophenone]", 1437.9),
    ("CC(=O)c1ccccc1 [acetophenone]", 1445),
]

Quick one: speed of sound for CCC(=O)c1ccccc1 [ethyl phenyl ketone] ?
1432.1

Hey, just so you know, these numbers are from the NIST ThermoML archive (doi:10.1021/je040008e).
